test system: fibrin-induced microglia activation; assay: Image-based assay of fibrin-induced microglia activation (HTS and dose response); assay type: cell-based, rat; conditions: Rattus norvegicus, Microglia, read-out: Fibrin % inhibition
Where a name gives a salt, the structure may show the parent alone.
Parameter threshold = 20%. Response is yes when inhibition at 10 µM meets or exceeds it, else no.

Request: Textbook exercise: given the entry `Oc1ccc(Cl)cc1` , state whether its inhibition at 10 µM is greater than or equal to 20%.
Response: yes

Request: Textbook exercise: given the entry `CO/N=C(\C(=O)N[C@@H]1C(=O)N2C(C(=O)O)=C(CSc3nc(=O)c(=O)[nH]n3C)CS[C@H]12)c1csc(N)n1` , state whether its inhibition at 10 µM is greater than or equal to 20%.
Response: no

Request: Textbook exercise: given the entry `COC(=O)C1=C(C)NC(C)=C(C(=O)OC)C1c1ccccc1[N+](=O)[O-]` , state whether its inhibition at 10 µM is greater than or equal to 20%.
Response: no

Request: Textbook exercise: given the entry `NNCCc1ccccc1` , state whether its inhibition at 10 µM is greater than or equal to 20%.
Response: no

Request: Textbook exercise: given the entry Clc1ccc(COC(Cn2ccnc2)c2ccc(Cl)cc2Cl)cc1 (stereo not shown) , state whether its inhibition at 10 µM is greater than or equal to 20%.
Response: no

Request: Textbook exercise: given the entry CCc1cc(C(N)=S)ccn1 [Ethionamide] , state whether its inhibition at 10 µM is greater than or equal to 20%.
Response: no

Request: Textbook exercise: given the entry CC(Cc1ccccc1)(NC(=O)CN)c1ccccc1 (stereo not shown) [Remacemide Hydrochloride] , state whether its inhibition at 10 µM is greater than or equal to 20%.
Response: no

Request: Textbook exercise: given the entry `CNC[C@H](O)c1cccc(O)c1` , state whether its inhibition at 10 µM is greater than or equal to 20%.
Response: yes

Request: Textbook exercise: given the entry `O=c1cccc2n1C[C@@H]1CNC[C@H]2C1` , state whether its inhibition at 10 µM is greater than or equal to 20%.
Response: yes

Request: Textbook exercise: given the entry `CN(C)C(=N)N=C(N)N` , state whether its inhibition at 10 µM is greater than or equal to 20%.
Response: no
